- Tgt: Syk kinase (Homo sapiens, UniProt P43405)
- Construct: purchased
- Procedure details: Syk kinase inhibition, Caliper LabChip off-chip mobility-shift kinase assay
- Type: biochemical
- Condition details: Caliper LabChip assay; read-out: Syk Enzyme IC50
Measure: IC50 (nM)
Give the value, in units of nM, as a plain number.

These solved cases illustrate the format of a correct answer.
>>> df
                                   compound  quantitative_result
0  COCCNCc1ccnc(Nc2cc3ccn(CCO)c(=O)c3c(NC(C)(C)C)n2)c1 [compound 694]                  237
1  CC(C)(CO)Nc1nc(-c2cnc(N)nc2)cc2ccn(CCO)c(=O)c12 [compound 902]                   57
2  CC(C)(C)Nc1nc(-c2cnc(N)nc2)cc2ccn(CC(O)C(F)(F)F)c(=O)c12 (stereo not shown) [compound 926]                   50

Would you kindly look at the next entry?
Given item CC1(Nc2nc(Nc3cc(C(O)C(F)(F)F)ccn3)cc3ccn(CC(N)=O)c(=O)c23)CC1 (stereo not shown) [compound 614] , the value recorded as its IC50 is 66
